# TESTED SYSTEM: mCOX-2 (Mus musculus)
# Construct: made in house; host or cells: insect cells
# Sequence (Q05769 18-604): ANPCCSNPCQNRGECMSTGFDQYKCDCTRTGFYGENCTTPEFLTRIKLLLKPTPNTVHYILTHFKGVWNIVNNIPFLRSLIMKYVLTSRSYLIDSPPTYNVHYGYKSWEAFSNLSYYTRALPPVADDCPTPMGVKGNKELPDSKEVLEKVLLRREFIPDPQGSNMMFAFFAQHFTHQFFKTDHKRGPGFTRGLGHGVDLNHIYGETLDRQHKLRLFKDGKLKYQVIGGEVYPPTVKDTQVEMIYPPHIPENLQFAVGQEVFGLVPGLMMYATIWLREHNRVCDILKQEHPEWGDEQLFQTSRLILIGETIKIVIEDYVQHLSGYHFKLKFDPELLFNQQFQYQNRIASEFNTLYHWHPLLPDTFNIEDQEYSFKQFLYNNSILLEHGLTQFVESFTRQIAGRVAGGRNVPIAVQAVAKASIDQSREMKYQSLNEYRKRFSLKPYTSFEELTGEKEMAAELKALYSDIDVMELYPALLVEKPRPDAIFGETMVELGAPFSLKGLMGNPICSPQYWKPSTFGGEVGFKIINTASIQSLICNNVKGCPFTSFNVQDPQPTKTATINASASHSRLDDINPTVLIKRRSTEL
# TEST SUMMARY: Inhibition of COX-2-mediated oxygenation of arachidonic acid and 2-AG, purified enzyme, 15 min preincubation
# Type: biochemical, murine
# ASSAY SETUP: read-out: IC50, COX-2 oxygenation of 2-AG; 50 μM 2-AG; 15 min preincubation; LC-MS/MS
ASSAY ENDPOINT: pIC50
Just the number, please; pIC50 means minus log10 of the concentration in mol/L.

Lookup: # lookup: mCOX-2 (Mus musculus) pIC50, key = Cc1ccc(Nc2c(F)cccc2Cl)c(CC(=O)O)c1
Found: 7.40

Lookup: # lookup: mCOX-2 (Mus musculus) pIC50, key = COc1ccc2c(c1)c(CC(=O)O)cn2C(=O)c1ccc(Cl)cc1
Found: 6.60

Origin of values: patent US20150183737A1
